Assay: chemical genetic growth profiling, strain panel (AID 1159580);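 note: tested at 20 µM; growth read once vehicle control cultures reached saturation at 30 °C; 1 = growth at the plate median or of vehicle wells; lower values mean less growth of the strain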
Conditions: S. cerevisiae deletion strains, growth OD, locus YNL183C, strain NPR1, hits give low values
Out of some 5,500 compounds screened, about 2,000 (36%) were called active. Not shown: some 18% with an inconclusive outcome. The list shows a part of the results.
Quick reference: normalized growth of the listed items.
No unit in the answer, please; the number alone is enough.

{"Molecule": "O=c1c2ccccc2oc2ccccc12", "normalized growth": 0.841}

Return normalized growth for the following molecule: "O=C(O)c1cc(=O)c2ccccc2o1" 0.949

Return normalized growth for the following molecule: "N#Cc1c(Br)cnn1Cc1cc(C(F)(F)F)cc(C(F)(F)F)c1" 0.931

Return normalized growth for the following molecule: "COc1c(O)cc2c(-c3ccccc3)cc(=O)oc2c1OC" 0.994

Return normalized growth for the following molecule: "O=C(NNC(=O)c1csc(-c2cccs2)n1)c1ccc(C(F)(F)F)cc1" 0.5

Return normalized growth for the following molecule: C[C@@H]1CC[C@@]2(OC1)OC1C(O)C3C4CC[C@H]5C[C@H](O[C@@H]6O[C@H](CO)[C@H](O[C@@H]7O[C@H](CO)[C@@H](O)[C@H](O[C@@H]8OC[C@@H](O)[C@H](O)[C@H]8O)[C@H]7O[C@@H]7O[C@H](CO)[C@H](O)[C@H](O[C@@H]8O[C@H](CO)[C@@H](O)[C@H](O)[C@H]8O)[C@H]7O)[C@H](O)[C@H]6O)[C@H](O)C[C@]5(C)C4CC[C@]3(C)C1[C@@H]2C (stereo partly specified) -0.00129

Return normalized growth for the following molecule: "N#CCC(=O)c1cccc(CSc2ccccc2Cl)c1" 0.584

Return normalized growth for the following molecule: "O=C(O)c1cn(-c2ccc(F)cc2)c2cc(N3CCNCC3)c(F)cc2c1=O" 0.982

Return normalized growth for the following molecule: "COc1cc(NC(=S)Nc2ccccc2OC(F)(F)F)cc(C(F)(F)F)c1" 1.01

Return normalized growth for the following molecule: "CN(C(=O)N(C)c1ccc(Cl)cc1C(=O)c1ccccc1Cl)c1ccc(Cl)cc1C(=O)c1ccccc1Cl" 0.412

---

Assay: chemical genetic growth profiling, strain panel (AID 1159580)
Details: S. cerevisiae deletion strains, growth OD, locus YNL128W, strain TEP1
In all, about 5,500 compounds went through this assay and about 2,000 (36%) were called active. Another 18% or so got no clear call; they are omitted. No stated cut-off is given here; in the data, active means normalized growth mostly below about 0.91 (no sharp cut-off); inconclusive means no clear call, values can overlap the other calls; inactive means mostly above about 0.92. The list shows a part of the results.
Select the matching outcome among active, inactive

Reference set (5 entries):
{"Structure string": "O=C(O)c1nc2cc(Cl)c(Cl)cc2[nH]c1=O", "Label value": "inactive"}
{"Structure string": "CCN(CC)CCNc1ccc(CO)c2sc3ccccc3c(=O)c12", "Label value": "inactive"}
{"Structure string": "COc1ccc(-c2coc3cc(O)cc(O)c3c2=O)cc1", "Label value": "active"}
{"Structure string": "N[C@@H](Cn1cc(I)c(=O)[nH]c1=O)C(=O)O", "Label value": "inactive"}
{"Structure string": "O=c1[nH]c2cc(Cl)c(Cl)cc2[nH]c1=O", "Label value": "inactive"}

We next turn to a different molecule, shown below.
Which result was noted for this molecule in the test: "CC(=O)N(O)CCCCCNC(=O)CCC(=O)N(O)CCCCCNC(=O)CCC(=O)N(O)CCCCCN" inactive

---

Test: chemical genetic growth profiling, strain panel (AID 1159580)
Details: S. cerevisiae deletion strains, growth OD, locus YPL051W, strain arl3
Among all 5,500 compounds or so, about 2,000 (36%) were called active. Not shown: some 18% with an inconclusive outcome. No stated cut-off is given here; in the data, active means normalized growth mostly below about 0.91 (no sharp cut-off); inconclusive means no clear call, values can overlap the other calls; inactive means mostly above about 0.92. Some of the results follow.
Select the matching outcome among active, inactive

{"Compound": "O=c1c(-c2ccc(O)cc2)coc2cc(O)cc(O)c12", "Label value": "inactive"}

Which result was noted for this compound in the test: CC(=O)CC(c1ccccc1)c1c(O)c2ccccc2oc1=O (stereo not given) inactive

Which result was noted for this compound in the test: "O=c1c(-c2ccccc2)coc2cc(O)cc(O)c12" inactive

Which result was noted for this compound in the test: FC(F)(F)C(Cl)Br (stereo not given) inactive

Which result was noted for this compound in the test: C=CCCCCCCCCCCCC(O)CC(O)CO (stereo not given) inactive

Which result was noted for this compound in the test: "COc1ccc(-c2coc3cc(OC(C)=O)cc(OC(C)=O)c3c2=O)cc1" inactive

Which result was noted for this compound in the test: C=C1C2CC[C@@]3(C)[C@H](c4ccoc4)OC(=O)C[C@]13O[C@H]1CC(=O)C(C)(C)[C@H](C(O)C(=O)OC)[C@@]21C (stereo not given in full) inactive

Which result was noted for this compound in the test: "CCCCCCCCCCCCCCCC[n+]1ccccc1" active

Which result was noted for this compound in the test: "COc1c(O)cccc1O" inactive

Which result was noted for this compound in the test: COc1cc([C@@H]2c3cc4c(cc3C(O[C@@H]3O[C@@H]5CO[C@@H](c6cccs6)OC5[C@H](O)[C@H]3O)C3COC(=O)[C@@H]32)OCO4)cc(OC)c1O (stereo not given in full) inactive

---

Experiment: chemical genetic growth profiling, strain panel (AID 1159580);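 note: tested at 20 µM; growth read once vehicle control cultures reached saturation at 30 °C; 1 = growth at the plate median or of vehicle wells; lower values mean less growth of the strain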
Settings: S. cerevisiae deletion strains, growth OD, locus YCL061C, strain MRC1 (second series), hits give low values
Screen size: about 5,500 compounds; about 2,000 (36%) were called active. Inconclusive results (about 18%) are left out. This is one part of the list.
Value type: normalized growth
No unit in the answer, please; the number alone is enough.

Example entries and their recorded answers appear below.
{"Molecule": "N#CC(C#N)=Cc1ccc([N+](=O)[O-])c(O)c1", "normalized growth": 0.991}
{"Molecule": "COCCOC(=O)C1=C(C)NC(C)=C(C(=O)OC(C)C)C1c1cccc([N+](=O)[O-])c1 (stereo not given)", "normalized growth": 1.01}
{"Molecule": "O=C1c2c(O)ccc(O)c2C(=O)c2c(NCCNCCO)ccc(NCCNCCO)c21", "normalized growth": 0.983}
{"Molecule": "CN1C[C@@H](CS(=O)(=O)N(C)C)C[C@@H]2c3cccc4c3c(cn4C)C[C@H]21", "normalized growth": 1}

Return normalized growth for the following molecule: CN1CC(O)C(O)C(O)C1CO (stereo not given) 1

---

Experiment: chemical genetic growth profiling, strain panel (AID 1159580);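 note: tested at 20 µM; growth read once vehicle control cultures reached saturation at 30 °C; 1 = growth at the plate median or of vehicle wells; lower values mean less growth of the strain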
Conditions: S. cerevisiae deletion strains, growth OD, locus YER155C, strain BEM2
About 2,000 (36%) of roughly 5,500 compounds were called active. Roughly 18% stayed inconclusive and do not appear here. No stated cut-off is given here; in the data, active means normalized growth mostly below about 0.91 (no sharp cut-off); inconclusive means no clear call, values can overlap the other calls; inactive means mostly above about 0.92. The list shows a part of the results.
Select the matching outcome among Yes for active, No for inactive

Reference set (8 entries):
{"Compound": "CC(=O)Nc1cccc(O)c1", "Label value": "No"}
{"Compound": "O=c1c(-c2ccccc2)coc2cc(O)cc(O)c12", "Label value": "Yes"}
{"Compound": "CCC1C2CC3C4N(C)c5ccccc5C45CC(C2C5OC(C)=O)N3C1OC(C)=O (stereo not drawn)", "Label value": "No"}
{"Compound": "O=c1c(-c2ccc(O)cc2)coc2cc(O)cc(O)c12", "Label value": "No"}
{"Compound": "CC1=CCc2c(cc3oc(C)cc(=O)c3c2O)OC1", "Label value": "No"}
{"Compound": "CC(=O)O[C@@H]1CC2C(C)(C)CCC(=O)[C@]2(C)C2CC[C@@]3(C)[C@H](c4ccoc4)OC(=O)C4OC43[C@@]21C (stereo partly drawn)", "Label value": "No"}
{"Compound": "CC(=O)Oc1cc(OC(C)=O)c2c(=O)c(-c3ccccc3)coc2c1", "Label value": "No"}
{"Compound": "CC(=O)O.CC(=O)O.[Cd]", "Label value": "Yes"}

We next turn to a different compound, shown below.
Which result was noted for this compound in the test: "COc1cc(O)c2c(=O)c(-c3ccc(O)cc3)coc2c1" Yes

---

Assay: chemical genetic growth profiling, strain panel (AID 1159580);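 note: tested at 20 µM; growth read once vehicle control cultures reached saturation at 30 °C; 1 = growth at the plate median or of vehicle wells; lower values mean less growth of the strain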
Conditions: S. cerevisiae deletion strains, growth OD, locus YPR163C, strain tif3
About 2,000 (36%) of roughly 5,500 compounds were called active. Inconclusive results (about 18%) are left out. No stated cut-off is given here; in the data, active means normalized growth mostly below about 0.91 (no sharp cut-off); inconclusive means no clear call, values can overlap the other calls; inactive means mostly above about 0.92. This is one part of the list.
Select the matching outcome among t for active, f for inactive

Reference set (5 entries):
{"Compound": "CC(N)Cc1ccc(O)cc1 (configuration not stated)", "Label value": "f"}
{"Compound": "Nc1ccc(C(=O)O)c(O)c1", "Label value": "f"}
{"Compound": "CC(C)c1ccc2c(c1O)CC[C@H]1C3=C(CC[C@]21C)C(=O)OC3", "Label value": "t"}
{"Compound": "Cn1c(=O)c2[nH]c(C3CCCC3)nc2n(C)c1=O", "Label value": "f"}
{"Compound": "CC(=O)O[C@H]1C[C@@]2(C)[C@H](c3ccoc3)OC(=O)[C@H]3O[C@]32[C@@]2(C)C1[C@]1(C)C(C[C@H]2OC(C)=O)C(C)(C)[C@H](OC(C)=O)C[C@@H]1OC(C)=O (some centres not stated)", "Label value": "f"}

Which result was noted for this compound in the test: COc1cc([C@@H]2c3cc4c(cc3C(O[C@@H]3O[C@@H]5CO[C@@H](c6cccs6)OC5[C@H](O)[C@H]3O)C3COC(=O)[C@@H]32)OCO4)cc(OC)c1O (some centres not stated) f

Which result was noted for this compound in the test: "COc1c2c(cc3c1OCO3)CC[N+](C)=C2" f

Which result was noted for this compound in the test: CCC1C2CC3C4N(C)c5ccccc5C45CC(C2C5OC(C)=O)N3C1OC(C)=O (configuration not stated) f

Which result was noted for this compound in the test: CC(=O)O[C@@H]1CC2C(C)(C)C(=O)CC[C@]2(C)C2CC[C@@]3(C)[C@H](c4ccoc4)OC(=O)C4OC43[C@@]21C (some centres not stated) f

Which result was noted for this compound in the test: "COc1cccc(-c2cc(=O)c3ccc(OC)cc3o2)c1" f

Which result was noted for this compound in the test: CCOC(=O)C1C(C=C(C)C)C1(C)C (configuration not stated) f

Which result was noted for this compound in the test: "NC(=O)CC[C@@H](N)C(=O)O" f

Which result was noted for this compound in the test: "Nc1ccc(C(=O)Oc2ccccc2)c(O)c1" t

Which result was noted for this compound in the test: C=CCCCCCCCCCCCC(O)CC(O)CO (configuration not stated) f

Which result was noted for this compound in the test: "CCCCCCCCCCCCCCCC[n+]1ccccc1" t

Which result was noted for this compound in the test: CC(=O)OC1CC2C(C)(C)CCCC2(C)C2CCC3(C)C(c4ccoc4)OC(=O)C4OC43C12C (configuration not stated) f

Which result was noted for this compound in the test: CC(=O)CC(c1ccccc1)c1c(O)c2ccccc2oc1=O (configuration not stated) f

Which result was noted for this compound in the test: "CCCCCCc1ccc(O)cc1O" t

Which result was noted for this compound in the test: "COc1cc2cc[n+]3cc4c(OC)c(OC)ccc4cc3c2cc1OC" f

Which result was noted for this compound in the test: "NCCc1cccc(O)c1" f

Which result was noted for this compound in the test: "C[n+]1cc2c3c(ccc2c2ccc4cc5c(cc4c21)OCO5)OCO3" t

Which result was noted for this compound in the test: "COc1cccc2c1cc([N+](=O)[O-])c1c(C(=O)O)cc3c(c12)OCO3" f
